These measurements were taken from patent US20250304620A1.

system: Pseudomonas aeruginosa ATCC 27853; assay: Injectable formulations on mice infected with peritonitis; assay type: in vivo, ICR mice; conditions: 1 mg/kg via tail vein, twice a day for 3 days, n = 10
Non-standard residues stand in square brackets, D forms with d. PEG2000 = polyethylene glycol 2000, conjugated to the N-terminus; PEG4000 = polyethylene glycol 4000, conjugated to the C-terminus; PEG200 = polyethylene glycol 200, conjugated to the C-terminus; PEG500 = polyethylene glycol 500, conjugated to the C-terminus; 2Nal = N[C@@H](Cc1ccc2ccccc2c1)C(=O)O; PEG1000 = polyethylene glycol 1000
For each of the substances below, state its Number of mice that died on each day after infection: day 2.
Numbers only, in Mouse.

Completed entries (count: 4):
substance	value-measured
PEG2000-RKLLXRLKXRK-NH2 [LV-29] (PEG2000-RKLL[2Nal]RLK[2Nal]RK-NH2) [polyethylene glycol 2000 conjugated to N-terminal; X=3-(2-naphthyl)-alanine]	0
Ac-RKLLXRLKXRK-PEG4000 [LV-30] (Ac-RKLL[2Nal]RLK[2Nal]RK-PEG4000) [polyethylene glycol 4000 conjugated to C-terminal; X=3-(2-naphthyl)-alanine]	1
Ac-RKLLXRLKXRK-PEG500 [LV-27] (Ac-RKLL[2Nal]RLK[2Nal]RK-PEG500) [polyethylene glycol 500 conjugated to C-terminal; X=3-(2-naphthyl)-alanine]	1
Ac-RKLLXRLKXRK-PEG1000 [LV-28] (Ac-RKLL[2Nal]RLK[2Nal]RK-PEG1000) [polyethylene glycol 1000 conjugated to C-terminal; X=3-(2-naphthyl)-alanine]	0

Could you now look at the following substance, please?
Return reported Number of mice that died on each day after infection: day 2. Input substance: Ac-RKLLXRLKXRK-PEG200 [LV-26] (Ac-RKLL[2Nal]RLK[2Nal]RK-PEG200) [polyethylene glycol 200 conjugated to C-terminal; X=3-(2-naphthyl)-alanine]
1
